EXPERIMENT DESCRIPTION: Half life in New Zealand Oryctolagus cuniculus (rabbit) at 2 mg/kg, iv
Type: ADME, organism-based
Design: dose 2 mg/kg, route intravenous
EXPERIMENTAL CONTEXT: in vivo
ENDPOINT: half-life (h)
One number for each entry, in h.

1) COc1ccc(S(=O)(=O)N2Cc3[nH]c4ccccc4c3C[C@H]2C(N)=O)cc1 [S007-1558 (S)]: 4.01

Let us examine a further case.
Ask | I am curious: what half-life value has been reported for COc1ccc(S(=O)(=O)N2Cc3[nH]c4ccccc4c3C[C@@H]2C(N)=O)cc1 ?
Reply | 3.84

====

EXPERIMENT DESCRIPTION: Volume of distribution in New Zealand Oryctolagus cuniculus (rabbit) at 2 mg/kg, iv
Format: ADME, organism-based
Set-up: dose 2 mg/kg, route intravenous
EXPERIMENTAL CONTEXT: in vivo
ENDPOINT: Vd (L/kg)
Answers are plain numbers, in L/kg.

1. COc1ccc(S(=O)(=O)N2Cc3[nH]c4ccccc4c3C[C@H]2C(N)=O)cc1 [S007-1558 (S)]: 29.8

Let us examine a further case.
Ask | I am curious: what Vd value has been reported for COc1ccc(S(=O)(=O)N2Cc3[nH]c4ccccc4c3C[C@@H]2C(N)=O)cc1 ?
Reply | 22

====

EXPERIMENT DESCRIPTION: Initial plasma concentration in New Zealand Oryctolagus cuniculus (rabbit) at 2 mg/kg, iv
Assay type: ADME, organism-based
Set-up: dose 2 mg/kg, route intravenous
For each entry below, report its C0 value.
Field: value (include unit after the number)

1) COc1ccc(S(=O)(=O)N2Cc3[nH]c4ccccc4c3C[C@@H]2C(N)=O)cc1: 288 ng/mL

Ask | I am curious: what C0 value has been reported for COc1ccc(S(=O)(=O)N2Cc3[nH]c4ccccc4c3C[C@H]2C(N)=O)cc1 [S007-1558 (S)] ?
Reply | 276 ng/mL
